# target under test: T1, hIL-4R on cells (STAT6-transfected HEK293, TF1, TF1/A12) (human, UniProt P24394 26-825)
# T1 sequence (looked up): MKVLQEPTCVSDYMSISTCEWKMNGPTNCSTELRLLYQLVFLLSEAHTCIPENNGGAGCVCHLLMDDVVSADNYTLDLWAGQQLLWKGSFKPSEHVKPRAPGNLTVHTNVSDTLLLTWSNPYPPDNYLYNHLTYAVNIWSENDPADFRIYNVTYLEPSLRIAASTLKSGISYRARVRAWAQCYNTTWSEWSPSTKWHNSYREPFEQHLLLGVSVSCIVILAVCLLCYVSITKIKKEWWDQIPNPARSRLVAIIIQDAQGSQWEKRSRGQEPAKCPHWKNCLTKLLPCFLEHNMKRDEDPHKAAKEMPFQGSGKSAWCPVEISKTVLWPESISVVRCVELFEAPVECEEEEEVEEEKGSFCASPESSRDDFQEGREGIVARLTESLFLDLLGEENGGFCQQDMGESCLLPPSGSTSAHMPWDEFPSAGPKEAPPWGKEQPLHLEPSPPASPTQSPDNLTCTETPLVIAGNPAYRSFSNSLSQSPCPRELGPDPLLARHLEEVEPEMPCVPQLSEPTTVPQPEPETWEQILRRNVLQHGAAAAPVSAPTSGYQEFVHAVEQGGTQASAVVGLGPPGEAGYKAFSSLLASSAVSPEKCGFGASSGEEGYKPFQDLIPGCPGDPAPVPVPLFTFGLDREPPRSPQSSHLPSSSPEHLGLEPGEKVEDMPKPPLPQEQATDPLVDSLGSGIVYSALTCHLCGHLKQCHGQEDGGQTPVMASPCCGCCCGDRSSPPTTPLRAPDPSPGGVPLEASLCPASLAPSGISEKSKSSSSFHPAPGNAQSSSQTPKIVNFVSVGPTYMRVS
# method summary: cell-based or functional assay
metric name: TF1 Bioassay IC50 (proliferation, 50 pM hIL-4) (nM)
Just the number please, in nM, no unit attached.

Some entries whose results are on file:
VAK12B11-9 (antibody, V domains shown, Apparently tested with mouse constant region (anti-mouse IgG capture/detection)) VH: QVQLVESGGGVVQPGRSLRLSCAASGFTFSSYAMYWVRQAPGKGLEWVAVISYDGSNKYYTDSVKGRFTVSRDNSKNTLFLQMNSLRAEDTALYYCAKESSSYGLDVWGQGTTVTVSS VL: DIQMTQSPSTLSASVGDRVAITCRASQSISNWLAWYQQKPGKAPKLLISKASSLKSGVPSRFSGSGSGTEFTLTISSLQPDDFAAYYCQQYNSYSYTFGQGTKLEIK ... 0.57
VAK9C6-11 (antibody, V domains shown, Apparently tested with mouse constant region (anti-mouse IgG capture/detection)) VH: QVQLVESGGGVVQPGRSLRLSCAASGFTFSSYGMHWVRQAPGKGLEWVTVISYDGSIKYYVDSVKGRFTISRDNSKNTLFLQMNSLRVEDTAVYYCAKEGRKYGMDVWGQGTTVTVSS VL: DIQMTQSPSTLSASVGDRVTITCRASQIISSLLVWYQQKPGKAPKLLIYKASSLESGVPSRFSGSGSGTEFTLTISSLQPDDFATYYCQQYHSYMYTFGQGTKLEIK ... 0.31

Moving on to another binder below.
Query block: TF1 Bioassay IC50 (proliferation, 50 pM hIL-4) for VAK8G11-13 (antibody, V domains shown, Apparently tested with mouse constant region (anti-mouse IgG capture/detection)) VH: QVRLVESGGGVVQPGGSLRLSCAASGFIFRSYGMHWVRQAPGRGLEWVAVISYDGSKTFYVDSVKVRFTISRDNSKNTLYLEMNSLRVDDTAVYFCVKEGRSGSWFDPWGQGTLVAVSS VL: DIHMTQSPSSLSASVGDRVTITCRASQAINNFLAWFQQKPGKTPKSLIFATSSLQSGVPSRFSGSGSGTDFTLTISSLQPEDFATYYCQQYNSHPWTFGQGTKVEIK ?
Result block: 0.16
